method_description: Lipid nanoparticle size by dynamic light scattering (Malvern Zetasizer Nano ZS)
Assay type: physicochemical
condition_details: LNP: cationic lipid/DSPC/cholesterol/PEG-lipid 50:10:38.5:1.5, hEPO mRNA; Table 3
endpoint: size nm (nm)

# compound, size nm / nm
data = [
    ("CCCCCCCCC(CCCCCC)CC(=O)NCCCCCN(CCCCCOC(=O)CC(CCCCCC)CCCCCCCC)CCN(CCO)C1CC1 (stereo not drawn) [Compound 117]", 76.79),
]

1: CCCCCCCCC(CCCCCC)COC(=O)NCCCCN(CCCCNC(=O)OCC(CCCCCC)CCCCCCCC)CCN(CCO)C1CCCC1 (stereo not drawn) [Compound 125]
2: CCCCCCC(CCCCCC)CC(=O)NCCCCCN(CCCCCOC(=O)CC(CCCCCC)CCCCCC)CCN(CCO)C1CCCC1 [Compound 154]
Name the one with the greater size nm value, either 1 or 2 as given. Write down the label of the entry you select. 2
(2: 104.8 nm, 1: 72.36 nm)

----------
method_description: Encapsulation efficiency of lipid nanoparticles (Quant-it Ribogreen RNA quantification assay)
Format: physicochemical
condition_details: LNP encapsulating hEPO mRNA; Table 3
endpoint: Encapsulation Efficiency (%)

Some compounds with recorded Encapsulation Efficiency:
# compound, Encapsulation Efficiency / %
data = [
    ("CCCCCCCCC(CCCCCCCC)COC(=O)CCCCCN(CCCCCC(=O)OCC(CCCCCCCC)CCCCCCCC)CCN(CCCCC)C1CCC(O)CC1 (stereo not drawn)", 93.2),
    ("CCCCCCCCC(CCCCCC)CNC(=O)CCCCCN(CCCCCC(=O)NCC(CCCCCC)CCCCCCCC)CCN(CCO)C1CCCCC1 (stereo not drawn) [Compound 129]", 91.20),
    ("CCCCCCCCC(CCCCCCCC)COC(=O)CCCCCN(CCCCCC(=O)OCC(CCCCCCCC)CCCCCCCC)CCN(CCO)C1CCC1", 94.90),
    ("CCCCCCCCC(CCCCCC)COC(=O)CCCCCN(CCCCCC(=O)OCC(CCCCCC)CCCCCCCC)C(=O)CCN(CCO)C1CCC1 (stereo not drawn)", 99.80),
    ("CCCCCCCCCCCOC(=O)CCCCCN(CCCCCC(=O)NCC(CCCCCCCC)CCCCCCCC)CCN(CCO)C1CCCCC1", 85.6),
    ("CCCCCCCCCCCOC(=O)CCCCCN(CCCCCC(=O)NCC(CCCCCCCC)CCCCCCCC)CCN(CCO)C1CC1", 94.0),
    ("CCCCCCCCC(CCCCCC)COC(=O)CCCCCN(CCCCCC(=O)OCC(CCCCCC)CCCCCCCC)CCN(CCC)C1CCC(O)CC1 (stereo not drawn)", 96.4),
    ("CCCCCCCCC(CCCCCC)COC(=O)CCCCCN(CCCCCC(=O)OCC(CCCCCC)CCCCCCCC)CCN(CCCCO)C1CCC1 (stereo not drawn)", 97.2),
]

a: CCCCCCCCNC(=O)CCCCCN(CCCCCC(=O)NCCCCCCCC)CCN(CCO)C1CCCCC1
b: CCCCCCCCC(CCCCCCCC)COC(=O)COCCOCCN(CCOCCOCC(=O)OCC(CCCCCCCC)CCCCCCCC)CCN(CCO)C1CCC1
Name the one with the greater Encapsulation Efficiency value, either a or b as given. Write down the label of the entry you select. b
(b: 94.41%, a: 30.1%)

----------
method_description: Lipid nanoparticle size by dynamic light scattering (Malvern Zetasizer Nano ZS)
Type: physicochemical
condition_details: LNP: cationic lipid/DSPC/cholesterol/PEG-lipid 50:10:38.5:1.5, hEPO mRNA; Table 3
endpoint: size nm (nm)

# compound, unit, size nm
data = [
    ("CCCCCCCCC(CCCCCC)CC(=O)COCCCCN(CCCCCOC(=O)CC(CCCCCC)CCCCCCCC)CCN(CCO)C1CCCCC1 (stereo not drawn) [Compound 26]", "nm", 55.51),
    ("CCCCCCCC(CCCCCCC)COC(=O)CCCCCN(CCCCCC(=O)OCC(CCCCCCC)CCCCCCC)CCN(CCO)C1CCC1 [Compound 49]", "nm", 65.13),
    ("CCCCCCCCC(CCCCCC)COC(=O)CCCCN(CCCCC(=O)OCC(CCCCCC)CCCCCCCC)CCN(CCO)C1CCC1 (stereo not drawn) [Compound 36]", "nm", 70.36),
]

----------
method_description: Lipid nanoparticle size by dynamic light scattering (Malvern Zetasizer Nano ZS)
Type: physicochemical
condition_details: LNP: cationic lipid/DSPC/cholesterol/PEG-lipid 50:10:38.5:1.5, hEPO mRNA; Table 3
Experimental: Briefly, a cationic lipid provided herein, DSPC, cholesterol, and PEG-lipid were solubilized in ethanol at a molar ratio of 50:10:38.5:1.5, and mRNA were diluted in 10 to 50 mM citrate buffer, pH=4. […] Lipid nanoparticle size were determined by dynamic light scattering using a Malvern Zetasizer Nano ZS (Malvern UK) using a 173° backscatter detection mode. […]
endpoint: polydispersity

# compound, polydispersity
measured = [
    ("CCCCCCC(CCCCCC)CC(=O)NCCCCCN(CCCCCOC(=O)CC(CCCCCC)CCCCCC)CCN(CCO)C1CC1", 0.059),
    ("CCCCCCCCC(CCCCCC)COC(=O)CCCCCN(CCCCCC(=O)OCC(CCCCCC)CCCCCCCC)CCN(C)C1CCC(O)CC1 (stereo not shown)", 0.051),
    ("CCCCCCCCCCCOC(=O)CCCCCN(CCCCCC(=O)NCC(CCCCCCCC)CCCCCCCC)CCN(CCO)C1CCCCCC1", 0.07),
    ("CCCCCCCCCCC(CCCCCC)COC(=O)CCCCCCN(CCCCCCC(=O)OCC(CCCCCC)CCCCCCCCCC)CCN(CCO)C1CCC1 (stereo not shown)", 0.068),
]

----------
method_description: Lipid nanoparticle size by dynamic light scattering (Malvern Zetasizer Nano ZS)
Format: physicochemical
condition_details: LNP: cationic lipid/DSPC/cholesterol/PEG-lipid 50:10:38.5:1.5, hEPO mRNA; Table 3
endpoint: polydispersity

a: CCCCCCCCC(CCCCCC)COC(=O)CCCCCN(CCCCCC(=O)OCC(CCCCCC)CCCCCCCC)CCN(CCOC(C)=O)C1CCC1 (centres unmarked)
b: CCCCCCCCC(CCCCCC)COC(=O)CCCCCN(CCCCCC(=O)OCC(CCCCCC)CCCCCCCC)CCN1CCC(O)C1 (centres unmarked)
c: CCCCC/C=C\CCCC(=O)C(CC/C=C\CCCCC)C(CCC/C=C\CCCCC)OC(=O)CCCCCN(CCCCCC(=O)OCCC/C=C/CCCCC)CCN(CCO)C1CCC1 (centres unmarked)
I'd appreciate it if you could rank the compounds mentioned above by polydispersity, largest value first. Answer format: the labels, ordered as requested. b, a, c
(b: 0.285, a: 0.181, c: 0.067)

----------
method_description: Encapsulation efficiency of lipid nanoparticles (Quant-it Ribogreen RNA quantification assay)
Format: physicochemical
condition_details: LNP encapsulating hEPO mRNA; Table 3
endpoint: Encapsulation Efficiency (%)

# molecule, meas_value
measured = [
    ("CCCCCCCCC(CCCCCC)CC(=O)NCCCCCN(CCCCCNC(=O)CC(CCCCCC)CCCCCCCC)CCN(CCO)C1CC1 (centres unmarked) [Compound 113]", 91.2),
    ("CCCCCCCCC(CCCCCC)COC(=O)CCCCCN(CCCCCC(=O)OCC(CCCCCC)CCCCCCCC)CCN(CCO)C1CCC(O)CC1 (centres unmarked) [Compound 21]", 100.6),
    ("CCCCCCCCC(CCCCCC)CNC(=O)CCCCCN(CCCCCC(=O)NCC(CCCCCC)CCCCCCCC)CCN(CCC)C1CCC(O)CC1 (centres unmarked) [Compound 135]", 85.6),
    ("CCCCCCCCC(CCCCCC)COC(=O)CCCCCN(CCCCCC(=O)OCC(CCCCCC)CCCCCCCC)C(=O)CCCN(CCO)C1CCC1 (centres unmarked) [Compound 13]", 96.8),
    ("CCCCCCCCCCC(CCCCCC)COC(=O)CCCCCCN(CCCCCCC(=O)OCC(CCCCCC)CCCCCCCCCC)CCN(CCO)C1CCC1 (centres unmarked) [Compound 43]", 97.3),
    ("CCCCCCCCC(CCCCCC)CC(=O)NCCCCCN(CCCCCOC(=O)CC(CCCCCC)CCCCCCCC)CCN(CCO)C1CC1 (centres unmarked) [Compound 117]", 95.2),
    ("CCCCCCCCC(CCCCCCCC)COC(=O)CCCCCN(CCCCCC(=O)OCC(CCCCCCCC)CCCCCCCC)CCN(CCO)C1CC(F)(F)C1 [Compound 79]", 89.2),
    ("CCCCCCCCC(CCCCCC)CNC(=O)CCCCCN(CCCCCC(=O)NCC(CCCCCC)CCCCCCCC)CCN(CCO)C1CCCCCC1 (centres unmarked) [Compound 112]", 95.9),
    ("CCCCCCCCC(CCCCCC)COC(=O)CCCCCN(CCCCCC(=O)OCC(CCCCCC)CCCCCCCC)CCN(CCO)C1CC(O)C1 (centres unmarked) [Compound 22]", 98.3),
    ("CCCCCCCCC(CCCCCCCC)COC(=O)CCOCCN(CCOCCC(=O)OCC(CCCCCCCC)CCCCCCCC)CCN(CCO)C1CCCCC1 [Compound 104]", 89.96),
    ("CCCCCCCCC(CCCCCC)COC(=O)CCCCCN(CCCCCC(=O)OCC(CCCCCC)CCCCCCCC)CCN(CCO)C1CCN(C)CC1 (centres unmarked) [Compound 94]", 100.3),
]
